Test system: Pseudomonas aeruginosa
protocol.description: Inhibition of LptD in Pseudomonas aeruginosa ATCC 27853 assessed as microbial growth inhibition by microbroth dilution method
endpoint: MIC

{"mol.smiles": "CC(C)C[C@H]1C(=O)N[C@@H](CCN)C(=O)N[C@@H](CCCN)C(=O)N[C@H](CCCCN)C(=O)N[C@@H](CCCNC(=N)N)C(=O)N[C@@H](Cc2c[nH]c3ccccc23)C(=O)N[C@@H](CCCN)C(=O)N[C@@H](CCN)C(=O)N[C@@H](C)C(=O)N[C@@H](CCCCN)C(=O)N2CCC[C@@H]2C(=O)N2CCC[C@H]2C(=O)N[C@@H]([C@@H](C)O)C(=O)N[C@@H](Cc2c[nH]c3ccccc23)C(=O)N1C", "tested.target": "Pseudomonas aeruginosa", "MIC": "> 64 µg/mL"}

Could you now look at the following molecule, please?
Ask: State its MIC for this molecule: CC(C)C[C@@H]1NC(=O)[C@H](Cc2c[nH]c3ccccc23)NC(=O)[C@H]([C@@H](C)O)NC(=O)[C@@H]2CCCN2C(=O)[C@H]2CCCN2C(=O)[C@H](CCCCN)NC(=O)[C@H](C)N(C)C(=O)[C@H](CCN)NC(=O)[C@H](CCCN)NC(=O)[C@H](Cc2c[nH]c3ccccc23)NC(=O)[C@H](CCCNC(=N)N)NC(=O)[C@@H](CCCCN)NC(=O)[C@H](CCCN)NC(=O)[C@H](CCN)NC1=O
Reply: > 64 µg/mL
